Cited source for all entries: ChEMBL document CHEMBL1145498

Please provide measured ΔTm for the entries that follow.
Give your result in °C as a bare value.

The reported ΔTm value, Serine/threonine-protein kinase Nek6 (Homo sapiens), for COc1cc2ncnc(Nc3cccc(Br)c3)c2cc1OC reads 0.5

The reported ΔTm value, Serine/threonine-protein kinase Nek6 (Homo sapiens), for CC(C)N(CCO)c1nc(Nc2cccc(Cl)c2)c2ncn(C(C)C)c2n1 reads -0.2

The reported ΔTm value, Serine/threonine-protein kinase Nek6 (Homo sapiens), for NS(=O)(=O)c1ccc(Nc2nc(OCC3CCCCC3)c3nc[nH]c3n2)cc1 reads 0.1

The reported ΔTm value, Serine/threonine-protein kinase Nek6 (Homo sapiens), for O=C1c2ccccc2-c2n[nH]c3cccc1c23 reads 0.9

The reported ΔTm value, Serine/threonine-protein kinase Nek6 (Homo sapiens), for COc1cc2ncnc(Nc3ccc(NC(=O)c4ccccc4)cc3)c2cc1OC reads 0.5

The reported ΔTm value, Serine/threonine-protein kinase Nek6 (Homo sapiens), for O=[N+]([O-])c1ccc(-c2nc(-c3ccc(F)cc3)c(-c3ccncc3)[nH]2)cc1 reads 0.9

The reported ΔTm value, Serine/threonine-protein kinase Nek6 (Homo sapiens), for COc1cc2ncnc(Nc3cccc(O)c3)c2cc1OC reads -0.1

The reported ΔTm value, Serine/threonine-protein kinase Nek6 (Homo sapiens), for O=c1c(-c2ccc(F)cc2)c(-c2ccncc2)[nH]n1-c1ccc(Cl)cc1 reads 0.8

The reported ΔTm value, Serine/threonine-protein kinase Nek6 (Homo sapiens), for O=C1NC(=O)C(c2cn(CCCn3ccnc3)c3ccccc23)=C1Nc1ccccc1 reads -0.1

The reported ΔTm value, Serine/threonine-protein kinase Nek6 (Homo sapiens), for O=C1Nc2cc(Br)ccc2/C1=C1/Nc2ccccc2/C1=N\O reads -0.4

The reported ΔTm value, Serine/threonine-protein kinase Nek6 (Homo sapiens), for O=C1C(Cl)=C(N2C(=O)CCC2=O)C(=O)c2ccccc21 reads -0.3

The reported ΔTm value, Serine/threonine-protein kinase Nek6 (Homo sapiens), for O=c1cc(N2CCOCC2)oc2c(-c3ccccc3)cccc12 reads -0.5

The reported ΔTm value, Serine/threonine-protein kinase Nek6 (Homo sapiens), for CC(C)(C)n1nc(-c2ccc(Cl)cc2)c2c(N)ncnc21 reads 0.2

The reported ΔTm value, Serine/threonine-protein kinase Nek6 (Homo sapiens), for N#CCCc1ccc2c(c1)-c1[nH]c3ccc([N+](=O)[O-])cc3c1CC(=O)N2 reads 0.8

The reported ΔTm value, Serine/threonine-protein kinase Nek6 (Homo sapiens), for O=C(O)/C=C/c1cc(CO)ccc1CO reads -0.2

The reported ΔTm value, Serine/threonine-protein kinase Nek6 (Homo sapiens), for O=C1NC(=O)C(c2c[nH]c3ccccc23)=C1c1c[nH]c2ccccc12 reads -0.2

The reported ΔTm value, Serine/threonine-protein kinase Nek6 (Homo sapiens), for CN(C)c1ccc(CC2C(=O)Nc3ccccc32)cc1 (stereo not drawn) reads 0

The reported ΔTm value, Serine/threonine-protein kinase Nek6 (Homo sapiens), for COC(=O)[C@]1(O)C[C@@H]2O[C@@]1(C)n1c3ccccc3c3c4c(c5c6ccccc6n2c5c31)C(=O)NC4 (single isomer, unassigned) reads 0

The reported ΔTm value, Serine/threonine-protein kinase Nek6 (Homo sapiens), for N#C/C(=C1/Nc2ccccc2S1)c1ccnc(NCCc2cccnc2)n1 reads 1.7

The reported ΔTm value, Serine/threonine-protein kinase Nek6 (Homo sapiens), for COc1ccc2c(c[n+](C)c3c4cc5c(cc4ccc23)OCO5)c1OC [CHELERYTHRINE CHLORIDE] reads -2.5

The reported ΔTm value, Serine/threonine-protein kinase Nek6 (Homo sapiens), for O=C1Nc2ccc(I)cc2/C1=C1/Nc2ccccc2/C1=N\O reads -2

The reported ΔTm value, Serine/threonine-protein kinase Nek6 (Homo sapiens), for CC(C)n1cnc2/c(=N/c3cccc(Cl)c3)nc(NCCO)[nH]c21 reads 0.1

The reported ΔTm value, Serine/threonine-protein kinase Nek6 (Homo sapiens), for O=c1cc(-c2ccc(O)cc2)oc2cc(O)cc(O)c12 reads 0.2

The reported ΔTm value, Serine/threonine-protein kinase Nek6 (Homo sapiens), for CN(C)CCCn1cc(C2=C(c3c[nH]c4ccccc34)C(=O)NC2=O)c2ccccc21 reads 0.9

The reported ΔTm value, Serine/threonine-protein kinase Nek6 (Homo sapiens), for Cc1cncc2cccc(S(=O)(=O)N3CCCNC[C@@H]3C)c12 reads 0

The reported ΔTm value, Serine/threonine-protein kinase Nek6 (Homo sapiens), for CCCNC(=O)Nc1ccc(Oc2ncnc3cc(OC)c(OC)cc23)cc1Cl reads 0.8

The reported ΔTm value, Serine/threonine-protein kinase Nek6 (Homo sapiens), for Cc1cc2ncc(-c3ccccc3)nc2cc1C reads 0.2

The reported ΔTm value, Serine/threonine-protein kinase Nek6 (Homo sapiens), for O=Nc1c(-c2c(O)[nH]c3ccccc23)[nH]c2ccccc12 reads 0.1
